tested on: Human B Lymphocyte cell line, SU-DHL-8; assay: Relative cell viability CCK-8, SU-DHL-8; type: cell-based; conditions: Homo sapiens, SU-DHL-8, 48 h, read-out: Relative cell viability (%), SU-DHL-8, 30 μM; 48 hours; untreated (DMSO) = 100%
Quick reference for viability at 30 µM among some compounds
observed.property: viability at 30 µM

> print(dat)
                                   compound   observed.property  result
1  Nc1ncccc1C(=O)NCCCCCCCCCCCCN1CCSCC1 [Compound 4]  viability at 30 µM   4.68%
2  CN(C)C1CCCCN(CCCCCCCCCCCCNC(=O)c2cccnc2N)C1 (stereo not shown) [Compound 45]  viability at 30 µM   0.53%
3  CC(C)CN1CCN(CCCCCCCCCCCCC(=O)Nc2nc(N)c3[nH]cnc3n2)CC1 [Compound 6]  viability at 30 µM   4.66%
4  Nc1ncccc1C(=O)NCCCCCCCCCCCCN1CCN(Cc2ccc(F)cc2)CC1 [Compound 27]  viability at 30 µM   2.03%
